Cited source: patent EP2974737A1

target: T1, purified interference factor(s) from Donor B (human); test: SPR, interference factor immobilized; % of Fig. 9 reference
T1 construct: the text names the donors 8, 19 and 30; also called interference in serum from Donor B
Measured parameter: interference binding, % of Reference Sequence (%)
Just the number in %, nothing appended.

Binder	Numeric readout
SEQ ID NO: 67 (VHH) VHH: EVQLVESGGGLVQPGGSLRLSCAASRSIGRLDRMGWYRHRPGEPRELVATITGGSSINYGDSVKGRFTISIDNSKNTVYLQMNSLKPEDTAVYYCNFNKYVTSRDTWGQGTLVTVSS	117

Turning to the following binder.
Could you please provide reported interference binding, % of Reference Sequence for SEQ ID NO: 81 (VHH) VHH: EVQLVESGGGVVQPGGSLRLSCAASRSIGRLDRMGWYRHRPGEPRELVATITGGSSINYGDSVKGRFTISIDNSKNTVYLQMNSLRPEDTAVYYCNFNKYVTSRDTWGQGTLVTVSS ? Thanks!
50
